target: hTDO2 (Homo sapiens); construct: endogenous in cells; assay: Cellular assay for TDO2 activity determination in A172 cells; conditions: human glioblastoma A172 cells naturally expressing hTDO2; overnight incubation; kynurenine by absorbance at 480 nm
Sequence (P48775 whole entry): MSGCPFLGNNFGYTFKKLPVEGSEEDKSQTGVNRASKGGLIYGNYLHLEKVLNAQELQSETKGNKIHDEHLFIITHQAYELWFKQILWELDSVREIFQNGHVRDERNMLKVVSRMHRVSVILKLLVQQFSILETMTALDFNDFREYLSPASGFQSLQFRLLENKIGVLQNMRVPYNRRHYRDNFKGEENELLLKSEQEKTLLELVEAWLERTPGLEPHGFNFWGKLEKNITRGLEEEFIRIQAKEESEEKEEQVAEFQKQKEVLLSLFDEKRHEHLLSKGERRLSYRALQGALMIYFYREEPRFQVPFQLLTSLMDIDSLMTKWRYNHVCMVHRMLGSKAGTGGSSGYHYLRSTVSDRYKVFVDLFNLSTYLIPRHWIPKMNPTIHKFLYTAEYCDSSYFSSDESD
Label scheme for IC50: class 0 = under 0.2 µM, class 1 = from 0.2 µM up to 0.3 µM, class 2 = 0.3 µM and over

Cc1cc(O)n(CCN2C(C)c3cc(-c4c[nH]c5cc(F)ccc45)ccc3S2(=O)=O)n1 (single isomer, unassigned; (+)) [Example 67] :: class 2
CCCC1NS(=O)(=O)c2ccc(-c3c[nH]c4cc(F)ccc34)cc21 (single isomer, unassigned; (+)) [Example 6] :: class 2
CNS(=O)(=O)CCN1C(C)c2cc(-c3c[nH]c4cc(F)ccc34)ccc2S1(=O)=O (single isomer, unassigned; (-)) [Example 59] :: class 2
CC1c2cc(-c3c[nH]c4cc(F)ccc34)ccc2S(=O)(=O)N1CCN1CCNCC1=O (single isomer, unassigned; (+)) [Example 66] :: class 1
CC1c2cc(-c3c[nH]c4cc(F)ccc34)ccc2S(=O)(=O)N1C[C@]1(C)CCC(=O)N1 (single isomer, unassigned; (+)) [Example 82] :: class 0

Ask | Each molecule maps to one class by IC50. Which class for CC(=O)N1CCC(N2C(C)c3cc(-c4c[nH]c5cc(F)ccc45)ccc3S2(=O)=O)C1 (single isomer, unassigned; (+)) [Example 74] ?
Reply | class 1

Ask | Each molecule maps to one class by IC50. Which class for CCOC(=O)NCCN1C(C)c2cc(-c3c[nH]c4cc(F)ccc34)ccc2S1(=O)=O (single isomer, unassigned; (+)) [Example 110] ?
Reply | class 0

Ask | Each molecule maps to one class by IC50. Which class for CC1c2cc(-c3c[nH]c4cc(F)ccc34)ccc2S(=O)(=O)N1CCN1CCOCC1 (single isomer, unassigned; (+)) [Example 118] ?
Reply | class 0

----------
molecular target: hTDO2 (Homo sapiens); construct: endogenous in cells; assay: Cellular assay for TDO2 activity determination in A172 cells; conditions: human glioblastoma A172 cells naturally expressing hTDO2; overnight incubation; kynurenine by absorbance at 480 nm
# Lookup of reported IC50 keyed by entry
In your response, put the unit directly after the numeric value.

Recorded results for 2 compounds are shown here.
O=S1(=O)c2ccc(-c3c[nH]c4cc(F)ccc34)cc2C(CO)N1CC(O)CO (single isomer, unassigned; (-)) [Example 142] :: 124 nM
CC1c2cc(-c3c[nH]c4cc(F)ccc34)ccc2S(=O)(=O)N1C1CCNC(=O)C1 (single isomer, unassigned; (-)) [Example 122] :: 54 nM

Ask | Recorded IC50 of CNC(=O)C(O)CN1C(C)c2cc(-c3c[nH]c4cc(F)ccc34)ccc2S1(=O)=O (single isomer, unassigned; (+)) [Example 99] , please.
Reply | 180 nM

Ask | Recorded IC50 of CNC(=O)CCN1C(C)c2cc(-c3c[nH]c4cc(F)ccc34)ccc2S1(=O)=O (single isomer, unassigned; (+)) [Example 45] , please.
Reply | 71 nM

Ask | Recorded IC50 of CNCC1NS(=O)(=O)c2ccc(-c3c[nH]c4cc(F)ccc34)cc21 (single isomer, unassigned; (+)) [Example 138] , please.
Reply | 234 nM

----------
Molecular target: hTDO2 (Homo sapiens)
Construct: endogenous in cells
Assay: Cellular assay for TDO2 activity determination in A172 cells
Settings: human glioblastoma A172 cells naturally expressing hTDO2; overnight incubation; kynurenine by absorbance at 480 nm
Procedure: The compounds of formula I inhibit the activity of human TDO2 in cells that constitutively express TDO2, such as A172 cells. A172 is a cell line derived from human brain glioblastoma cells. […] The plates were then centrifuged 5 min at 1000 rpm, and 100 μL of the supernatant were collected in a conical plate, 30 μL of TCA 30% were added and a further centrifuged at 3000×g for 10 minutes. […] Kynurenine concentrations were determined by measuring the absorbance at 480 nm. […]
IC50 less than 50 nM is MET; IC50 greater than or equal to 50 nM is NOT MET.

Example results:
C[C@H]1NS(=O)(=O)c2ccc(-c3c[nH]c4cc(F)ccc34)cc21 (single isomer, unassigned) [Example 1] :: MET
CC1c2cc(-c3c[nH]c4cc(F)ccc34)ccc2S(=O)(=O)N1CCc1n[nH]c(=O)o1 (single isomer, unassigned; (+)) [Example 134] :: NOT MET
CC(C)C1NS(=O)(=O)c2ccc(-c3c[nH]c4cc(F)ccc34)cc21 (single isomer, unassigned; (-)) [Example 9] :: NOT MET

Ask | Problem: For the compound CNC(=O)C(CN1C(C)c2cc(-c3c[nH]c4cc(F)ccc34)ccc2S1(=O)=O)OC (single isomer, unassigned; (+)) [Example 105] , is IC50 under 50 nM?
Reply | NOT MET

Ask | Problem: For the compound CC1c2cc(-c3c[nH]c4cc(F)ccc34)ccc2S(=O)(=O)N1CC1(C)COC(=O)N1 (single isomer, unassigned; (-)) [Example 88] , is IC50 under 50 nM?
Reply | NOT MET

Ask | Problem: For the compound CC(C)C1NS(=O)(=O)c2ccc(-c3c[nH]c4cc(F)ccc34)cc21 (single isomer, unassigned; (+)) [Example 8] , is IC50 under 50 nM?
Reply | MET
